Target: T1, GDF11 (UniProt O95390 299-407)
T1 sequence (looked up): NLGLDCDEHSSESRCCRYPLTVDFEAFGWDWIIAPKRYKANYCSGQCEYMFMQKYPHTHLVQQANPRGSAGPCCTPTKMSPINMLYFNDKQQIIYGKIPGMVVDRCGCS
Assay: cell-based or functional assay
experimentalReadout: IC50 (ng/mL), A-204 reporter gene assay, conditioned media

binder: ActRIIB(22-131)-hFc (Fc fusion, not shown: a dimerising Fc or GST) GEAETRECIYYNANWELERTNQSGLERCEGEQDKRLHCYASWRNSSGTIELVKKGCWLDDFNCYDRQECVATEENPQVYFCCCEGNFCNERFTHLPEAGGPEVTYEPPPTGGG
unitsSymbol: ng/mL
experimentalResult: 71

binder: ActRIIB(20-131)-hFc (Fc fusion, not shown: a dimerising Fc or GST) GRGEAETRECIYYNANWELERTNQSGLERCEGEQDKRLHCYASWRNSSGTIELVKKGCWLDDFNCYDRQECVATEENPQVYFCCCEGNFCNERFTHLPEAGGPEVTYEPPPTGGG
unitsSymbol: ng/mL
experimentalResult: 183

P: ActRIIB(23-131)-hFc (Fc fusion, not shown: a dimerising Fc or GST) EAETRECIYYNANWELERTNQSGLERCEGEQDKRLHCYASWRNSSGTIELVKKGCWLDDFNCYDRQECVATEENPQVYFCCCEGNFCNERFTHLPEAGGPEVTYEPPPTGGG
Q: ActRIIB(21-131)-hFc (Fc fusion, not shown: a dimerising Fc or GST) RGEAETRECIYYNANWELERTNQSGLERCEGEQDKRLHCYASWRNSSGTIELVKKGCWLDDFNCYDRQECVATEENPQVYFCCCEGNFCNERFTHLPEAGGPEVTYEPPPTGGG
### Prompt Of the two listed items, P and Q , which carries the larger IC50 (ng/mL), A-204 reporter gene assay, conditioned media figure? Field: selected label. Fill in the label of the entry you choose.
### Response Q
